Test: Aqueous solubility of compound
Type: physicochemical
Settings: buffer
measured_property: solubility (µg/mL)
Numbers only, in µg/mL.

Look at this compound and give its reported solubility. Cc1cc(=O)c(O)cc2c1C[C@H]1C[C@H](OC(=O)CCC(=O)O)[C@@]3(C)Oc4cc(O)c(=O)ccc4C[C@H]3CC(C)(C)/C=C/C[C@]1(C)O2
66.3

###

Test: Relative solubility of compound by measuring ratio of solubility of compound to solubility of Eupenifeldin
Type: physicochemical
Provide the recorded Ratio for the entries that follow.
One number for each entry.

Below, each entry is followed by its recorded Ratio result.
COCCOC(=O)Oc1cc2c(ccc1=O)C[C@H]1CC(C)(C)/C=C/C[C@]3(C)Oc4cc(OC(=O)OCCOC)c(=O)cc(C)c4C[C@H]3C[C@H](O)[C@@]1(C)O2 | 0.2
Cc1cc(=O)c(O)cc2c1C[C@H]1C[C@H](OC(=O)CCC(=O)O)[C@@]3(C)Oc4cc(O)c(=O)ccc4C[C@H]3CC(C)(C)/C=C/C[C@]1(C)O2 | 40

Then there is this molecule:
Look at this molecule and give its reported Ratio. CC(=O)Oc1cc2c(ccc1=O)C[C@H]1CC(C)(C)/C=C/C[C@]3(C)Oc4cc(OC(C)=O)c(=O)cc(C)c4C[C@H]3C[C@H](O)[C@@]1(C)O2
0.1
